# TARGET_UNDER_TEST: T1, canine OX40L, full length membrane form, expressed on HEK293 cells (canine)
# T1 chain: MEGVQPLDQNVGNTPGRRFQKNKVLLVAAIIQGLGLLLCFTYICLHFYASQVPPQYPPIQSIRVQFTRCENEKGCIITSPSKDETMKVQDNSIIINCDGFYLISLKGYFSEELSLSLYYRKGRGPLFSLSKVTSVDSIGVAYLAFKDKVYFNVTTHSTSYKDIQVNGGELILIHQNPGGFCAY
# ASSAY_NAME: cell-based or functional assay
// values below are reported % Signal Inhibition Rep1
PROPERTY: % Signal Inhibition Rep1 (%)

[[record]]
binder = "PMX060 (antibody, V domains shown, also called PMX60) VH: EVQLVESGGDLMKPGGSLRLSCVASGFTFSSFPMSWVRQAPGKGLQWVAYIHSGGSSTSYADAVKGRFTISRDNAKNTLYLQMNSLRAEDTAIYYCARTFPTVAADNWFYYWGQGTLVTVSS VL: SYVLTQLPSKNVTLKQAAHITCGGDNIGSKSVHWYQQKLGQAPVLIIYYDSSRPTGIPERFSGANSGNTATLTISGALAEDEADYYCQVWDSSAKWVFGEGTQLTVL"
property = "% Signal Inhibition Rep1"
number = 58.9

[[record]]
binder = "PMX026 (antibody, V domains shown, also called PMX26) VH: EVHLVESGGDLVKPGGSLRLSCVASGFTFSSYHMSWVRQAPGKGLQWVAFINAGEISTNYADAVKGRFTISRDNAKNILYLQMNSLRAEDTAVYYCASGHIWIRPFDYWGQGTLVTVSS VL: SYVLTQLPSMSVTLRQTARITCEGDSIGRKRVNWYQQKLGQVPVLIIYDDDSRPSGIPERFSGANSGNTATLTISGALAEDEAEYYCQVWDSSNNWVFGEGTQLTVL"
property = "% Signal Inhibition Rep1"
number = 67.6

[[record]]
binder = "PMX109 (antibody, V domains shown) VH: EVQLVESGGDLVRPGGSLRLSCVASGFTFTNYHMSWVRQAPGKGLQWVAFINSGGSSTTYTDVVRGRFTISRDYAKNTLYLQMNSLTAEDTAVYYCASGSIWTHFDHWGQGTLVTVSS VL: SFVLTQLPSVSVTLRQTARITCGGDSVGSKSVYWYQQKLGQAPVLIIYRDSNRPTGIPERFSGASSGNTATLTISGALAEDEADYYCQVWDNSNKAIFGGGTHLTVL"
property = "% Signal Inhibition Rep1"
number = 67.9

